Kindly supply the reported IC50 values for the records listed here.
Biological target: Jak2 (a.a. 828-1132) (Homo sapiens)
Construct: Jak2 (a.a. 828-1132); His tag (N); made in house; host or cells: insect cells (baculovirus)
Assay: In vitro JAK kinase assay (HTRF, phosphorylation of biotinylated peptide), JAK2
Type: biochemical
Details: 1 mM ATP; Examples 92-162; read-out: JAK2 IC50 (nM) @ 1 mM ATP
Counter-ions that a name gives are not always drawn.

# COMPOUND, VALUE
measured = [
    ("N#CCC(CN1CCCN(C(=O)c2ccc(F)cc2)CC1)n1cc(-c2ncnc3[nH]ccc23)cn1 (centres unmarked)", "> 100 nM"),
    ("CCC(CN1CCN(C(=O)c2ccc(O)cc2Cl)CC1)n1cc(-c2ncnc3[nH]ccc23)cn1 (centres unmarked)", "50 to 100 nM"),
    ("COCC1CN(C(=O)c2ccc(C#N)cc2F)CCN1CC(CC#N)n1cc(-c2ncnc3[nH]ccc23)cn1 (single isomer, unassigned) [Example 157—peak 3]", "> 100 nM"),
    ("N#CCC(CN1CCN(C(=O)c2ccc(C#N)cc2F)CC1CO)n1cc(-c2ncnc3[nH]ccc23)cn1 (single isomer, unassigned) [156—peak 4, trifluoroacetate Salt]", "> 100 nM"),
    ("CC(CN1CCN(S(=O)(=O)c2ccc(Cl)s2)CC1)n1cc(-c2ncnc3[nH]ccc23)cn1 (centres unmarked)", "> 100 nM"),
]

Would you mind giving IC50 for every compound in the list below?
1. CCC(CN1CCN(S(=O)(=O)c2ccccc2)CC1)n1cc(-c2ncnc3[nH]ccc23)cn1 (centres unmarked)
2. CCC(CN1CCN(C(=O)c2cc(F)cc(F)c2)CC1)n1cc(-c2ncnc3[nH]ccc23)cn1 (centres unmarked)
3. COCC1CN(C(=O)c2ccc(C#N)cc2F)CCN1CC(CC#N)n1cc(-c2ncnc3[nH]ccc23)cn1 (single isomer, unassigned) [Example 157—peak 2]
4. N#CCC(CN1CCCN(C(=O)c2ccc(Cl)cc2F)CC1)n1cc(-c2ncnc3[nH]ccc23)cn1 (centres unmarked)
5. CCC(CN1CCN(C(=O)c2cccs2)CC1)n1cc(-c2ncnc3[nH]ccc23)cn1 (centres unmarked)

1: 20 to 50 nM; 2: > 100 nM; 3: > 100 nM; 4: 20 to 50 nM; 5: > 100 nM

Would you mind giving IC50 for every compound in the list below?
1. CCC(CN1CCN(S(=O)(=O)c2cn(C)nc2C(F)(F)F)CC1)n1cc(-c2ncnc3[nH]ccc23)cn1 (centres unmarked)
2. N#CCC(CN1CCCN(S(=O)(=O)c2ccccc2Oc2ccccc2)CC1)n1cc(-c2ncnc3[nH]ccc23)cn1 (centres unmarked)
3. N#CCC(CN1CCCN(S(=O)(=O)c2ccccc2C(F)(F)F)CC1)n1cc(-c2ncnc3[nH]ccc23)cn1 (centres unmarked)
4. CCC(CN1CCN(S(=O)(=O)c2cccs2)CC1)n1cc(-c2ncnc3[nH]ccc23)cn1 (centres unmarked)

["> 100 nM", "> 100 nM", "> 100 nM", "20 to 50 nM"]

* * *

Biological target: Jak2 (a.a. 828-1132) (Homo sapiens)
Construct: Jak2 (a.a. 828-1132); His tag (N); made in house; host or cells: insect cells (baculovirus)
Assay: In vitro JAK kinase assay (HTRF, phosphorylation of biotinylated peptide), JAK2
Assay type: biochemical
Settings: 1 mM ATP; Examples 12-91; read-out: JAK2 IC50 (nM) @ 1 mM ATP
Where a name gives a salt, the structure may show the parent alone.
Kindly supply the reported IC50 values for the records listed here.

Would you mind giving IC50 for every compound in the list below?
1. N#CCC(CN1CCN(C(=O)c2c(O)cccc2F)CC1)n1cc(-c2ncnc3[nH]ccc23)cn1 (stereo not shown)
2. N#CCC(CN1CCN(C(=O)c2ncc(C#N)cc2F)CC1)n1ccc(-c2ncnc3[nH]ccc23)c1 (stereo not shown)
3. COc1ccc(C(=O)N2CCN(CC(CC#N)n3cc(-c4ncnc5[nH]ccc45)cn3)CC2)c(F)c1F (stereo not shown)
4. N#CCC(CN1CCN(C(=O)c2c(F)cc(C#N)cc2F)CC1)n1ccc(-c2ncnc3[nH]ccc23)c1 (stereo not shown) [Example 79, trifluoroacetate salt]
5. Cc1cccc(S(=O)(=O)N2CCN(CC(CC#N)n3cc(-c4ncnc5[nH]ccc45)cn3)CC2)n1 (stereo not shown)
6. N#CCC(CN1CCN(C(=O)c2ccc(C(F)F)cc2F)CC1)n1cc(-c2ncnc3[nH]ccc23)cn1 (stereo not shown)
7. Cc1cc(F)ccc1C(=O)N1CCN(CC(CC#N)n2cc(-c3ncnc4[nH]ccc34)cn2)CC1 (stereo not shown)

1: < 10 nM; 2: > 100 nM; 3: 10 to 50 nM; 4: 50 to 100 nM; 5: < 10 nM; 6: 10 to 50 nM; 7: 10 to 50 nM

* * *

Target: Jak2 (a.a. 828-1132) (Homo sapiens, UniProt O60674)
Construct: Jak2 (a.a. 828-1132); His tag (N); made in house; host or cells: insect cells (baculovirus)
Sequence (O60674 828-1132): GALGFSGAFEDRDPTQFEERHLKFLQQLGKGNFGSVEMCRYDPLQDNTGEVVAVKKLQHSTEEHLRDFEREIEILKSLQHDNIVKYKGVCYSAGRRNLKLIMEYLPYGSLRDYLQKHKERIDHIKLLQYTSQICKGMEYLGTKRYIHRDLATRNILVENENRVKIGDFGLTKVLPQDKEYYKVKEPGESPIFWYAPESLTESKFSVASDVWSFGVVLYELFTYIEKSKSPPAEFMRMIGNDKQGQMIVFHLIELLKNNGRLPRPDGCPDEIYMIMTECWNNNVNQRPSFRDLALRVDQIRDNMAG
Test: In vitro JAK kinase assay (HTRF, phosphorylation of biotinylated peptide), JAK2
Type: biochemical
Conditions: 1 mM ATP; Examples 12-91; read-out: JAK2 IC50 (nM) @ 1 mM ATP
Counter-ions that a name gives are not always drawn.
Kindly supply the reported IC50 values for the records listed here.

# annotated cases, reported IC50 shown
# COMPOUND, OBSERVABLE, VALUE
measured = [
    ("N#CCC(CN1CCN(C(=O)c2cccc(F)c2F)CC1)n1cc(-c2ncnc3[nH]ccc23)cn1 (stereo not drawn)", "IC50", "< 10 nM"),
    ("N#CCC(CN1CCN(C(=O)c2ccc(F)c(F)c2)CC1)n1cc(-c2ncnc3[nH]ccc23)cn1 (stereo not drawn)", "IC50", "10 to 50 nM"),
]

Now look at this one.
# lookup: IC50 of N#CCC(CN1CCN(C(=O)c2ccc(C#N)cc2F)CC1)n1cc(-c2ncnc3[nH]ccc23)cn1 (single isomer, unassigned) [Example 12, trifluoroacetate Salt]
50 to 100 nM

* * *

Kindly supply the reported IC50 values for the records listed here.
Molecular target: Jak2 (a.a. 828-1132) (Homo sapiens)
Construct: Jak2 (a.a. 828-1132); His tag (N); made in house; host or cells: insect cells (baculovirus)
Test: In vitro JAK kinase assay (HTRF, phosphorylation of biotinylated peptide), JAK2
Type: biochemical
Details: 1 mM ATP; Examples 92-162; read-out: JAK2 IC50 (nM) @ 1 mM ATP
Description: Compounds herein were tested for inhibitory activity of JAK targets according to the following in vitro assay described in Park et al., Analytical Biochemistry 1999, 269, 94-104. […] The phosphorylated peptide was detected by homogenous time resolved fluorescence (HTRF). […] Binding to the Europium labeled antibody took place for 40 minutes and HTRF signal was measured on a Fusion plate reader (Perkin Elmer, Boston, Mass.). […]
Where a name gives a salt, the structure may show the parent alone.

# annotated cases, reported IC50 shown
# COMPOUND, OBSERVABLE, VALUE
measured = [
    ("COc1cc(Cl)ccc1C(=O)N1CCCN(CC(CC#N)n2cc(-c3ncnc4[nH]ccc34)cn2)CC1 (stereo not drawn)", "IC50", "50 to 100 nM"),
    ("N#CCC(CN1CCN(C(=O)c2ccc(C#N)cc2F)CC1CO)n1cc(-c2ncnc3[nH]ccc23)cn1 (single isomer, unassigned) [156—peak 1, trifluoroacetate Salt]", "IC50", "> 100 nM"),
]

# lookup: IC50 of CCC(CN1CCN(S(=O)(=O)c2ccc(F)cc2C)CC1)n1cc(-c2ncnc3[nH]ccc23)cn1 (stereo not drawn)
> 100 nM

* * *

Target: human JAK1 (a.a. 837-1142) (Homo sapiens, UniProt P23458)
Construct: The catalytic domains of human JAK1 (a.a. 837-1142); His tag (N); made in house; host or cells: insect cells (baculovirus)
Sequence (P23458 849-1154): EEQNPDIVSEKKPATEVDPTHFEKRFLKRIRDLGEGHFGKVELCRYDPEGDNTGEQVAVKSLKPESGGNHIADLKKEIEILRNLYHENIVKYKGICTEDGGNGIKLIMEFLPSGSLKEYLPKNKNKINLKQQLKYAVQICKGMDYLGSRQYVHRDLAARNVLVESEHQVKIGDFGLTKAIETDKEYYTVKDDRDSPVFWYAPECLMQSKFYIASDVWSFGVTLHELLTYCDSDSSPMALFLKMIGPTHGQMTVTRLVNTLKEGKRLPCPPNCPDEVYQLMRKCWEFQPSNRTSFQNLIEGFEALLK
Assay: In vitro JAK kinase assay (HTRF, phosphorylation of biotinylated peptide), JAK1
Type: biochemical
Conditions: 1 mM ATP; Examples 92-162; read-out: JAK1 IC50 (nM) @ 1 mM ATP
Kindly supply the reported IC50 values for the records listed here.

# annotated cases, reported IC50 shown
# COMPOUND, TESTED_ON, IC50
measured = [
    ("CCC(CN1CCN(C(=O)c2cccs2)CC1)n1cc(-c2ncnc3[nH]ccc23)cn1 (stereo not shown)", "human JAK1 (a.a. 837-1142) (Homo sapiens, UniProt P23458)", "20 to 50 nM"),
    ("CCC(CN1CCN(S(=O)(=O)c2ccccc2C(F)(F)F)CC1)n1cc(-c2ncnc3[nH]ccc23)cn1 (stereo not shown)", "human JAK1 (a.a. 837-1142) (Homo sapiens, UniProt P23458)", "< 20 nM"),
    ("Cc1cc(Cl)ccc1C(=O)N1CCCN(CC(CC#N)n2cc(-c3ncnc4[nH]ccc34)cn2)CC1 (stereo not shown)", "human JAK1 (a.a. 837-1142) (Homo sapiens, UniProt P23458)", "20 to 50 nM"),
    ("N#CCC(CN1CCCN(C(=O)c2ccc(Cl)cc2Cl)CC1)n1cc(-c2ncnc3[nH]ccc23)cn1 (stereo not shown)", "human JAK1 (a.a. 837-1142) (Homo sapiens, UniProt P23458)", "20 to 50 nM"),
]

Would you mind giving IC50 for every compound in the list below?
1. COCC1CN(C(=O)c2ccc(C#N)cc2F)CCN1CC(CC#N)n1cc(-c2ncnc3[nH]ccc23)cn1 (single isomer, unassigned) [Example 157—peak 2]
2. CC(CN1CCN(C(=O)c2ccc(F)cc2F)CC1)n1cc(-c2ncnc3[nH]ccc23)cn1 (stereo not shown) [Example 95, bis(trifluoroacetate)]
3. Cc1c(Nc2ccc(F)c(F)c2)ncnc1N1CCC(C(CC#N)n2cc(-c3ncnc4[nH]ccc34)cn2)CC1 (stereo not shown)

1: < 20 nM; 2: 20 to 50 nM; 3: < 20 nM
